Assign pest or weed control at 121.5 g/ha to each entry below.
# Tested on: Puccinia triticina
# experiment_description: Fungicidal activity: wheat brown rust (PUCCRT), wheat seedlings, booth sprayer to run-off or track spray
# Format: in vivo
# experimental_setup: 72 h, Low-Volume Cereal Activity at 121.5 g/H, 3 Day Curative, read-out: PUCCRT 3DC

In plain terms, COc1ccnc(C(=O)N[C@@H](C)C(=O)O[C@@H](C)[C@H](Cc2ccc(Cl)c(Cl)c2)c2ccccc2)c1OCOC(C)=O has a documented pest or weed control at 121.5 g/ha of 0 to 80%

In plain terms, COc1ccnc(C(=O)N[C@@H](C)C(=O)O[C@@H](C)[C@@H](COCc2ccccc2)Cc2ccccc2)c1OCOC(C)=O has a documented pest or weed control at 121.5 g/ha of 80 to 100%

In plain terms, COc1ccnc(C(=O)N[C@@H](C)C(=O)O[C@@H](C)[C@@H](COCc2ccccc2)Cc2ccccc2)c1OC(C)=O has a documented pest or weed control at 121.5 g/ha of 0 to 80%

In plain terms, COc1ccnc(C(=O)N[C@@H](C)C(=O)O[C@@H](C)[C@H](CCC(C)C)c2ccccc2)c1OC(C)=O has a documented pest or weed control at 121.5 g/ha of 0 to 80%

In plain terms, COc1cccc(CC(Cc2cccc(OC)c2)[C@H](C)OC(=O)[C@H](C)NC(=O)c2nccc(OC)c2OC(C)=O)c1 has a documented pest or weed control at 121.5 g/ha of 0 to 80%

In plain terms, CC[C@H](CCCc1ccccc1)[C@@H](CC(C)C)[C@H](C)OC(=O)C(C)NC(=O)c1nccc(OC)c1OC(C)=O (stereo partly drawn) has a documented pest or weed control at 121.5 g/ha of 0 to 80%
